- Measurement notes: Tissue distribution after single oral administration in rats
- Format: in vivo, rat
- Condition context: male, Wistar, rat, spleen, po, 100 mg/kg, spleen, 100 mg/kg PO, male Wistar rats, 24 h, mean; read-out: Spleen concentration, Mean
Property measured: concentration at 24 h

Task: What does the record list as concentration at 24 h for `COc1cc(Nc2ncnc(Nc3cc4c(cn3)NC(=O)C(C)(C)O4)n2)cc(OC)c1OC` ?
Result: 30.3 ng/mL

====

- Measurement notes: Tissue distribution after single oral administration in rats
- Assay type: in vivo, rat
- Condition context: male, Wistar, rat, prostate, po, 100 mg/kg, prostate, 100 mg/kg PO, male Wistar rats, 24 h, mean; read-out: Prostate concentration, Mean
Property measured: concentration at 24 h (ng/mL)
Field: numeric (ng/mL). Do not append units.

Task: What does the record list as concentration at 24 h for COc1cc(Nc2ncnc(Nc3cc4c(cn3)NC(=O)C(C)(C)O4)n2)cc(OC)c1OC [MT-SYK-03] ?
Result: 21.6
